Numbers sourced from patent US20180099931A1.

- experimental_target: F508delCFTR (Homo sapiens, UniProt P13569, DEL508-508)
- Construct: expressed in transfected cells; host or cells: CFBE41o- human lung-derived epithelial cells (CFBE4lo-F508delCFTR-HRP), doxycycline-inducible
- Sequence (P13569 with tags, fused parts or gaps DEL508-508): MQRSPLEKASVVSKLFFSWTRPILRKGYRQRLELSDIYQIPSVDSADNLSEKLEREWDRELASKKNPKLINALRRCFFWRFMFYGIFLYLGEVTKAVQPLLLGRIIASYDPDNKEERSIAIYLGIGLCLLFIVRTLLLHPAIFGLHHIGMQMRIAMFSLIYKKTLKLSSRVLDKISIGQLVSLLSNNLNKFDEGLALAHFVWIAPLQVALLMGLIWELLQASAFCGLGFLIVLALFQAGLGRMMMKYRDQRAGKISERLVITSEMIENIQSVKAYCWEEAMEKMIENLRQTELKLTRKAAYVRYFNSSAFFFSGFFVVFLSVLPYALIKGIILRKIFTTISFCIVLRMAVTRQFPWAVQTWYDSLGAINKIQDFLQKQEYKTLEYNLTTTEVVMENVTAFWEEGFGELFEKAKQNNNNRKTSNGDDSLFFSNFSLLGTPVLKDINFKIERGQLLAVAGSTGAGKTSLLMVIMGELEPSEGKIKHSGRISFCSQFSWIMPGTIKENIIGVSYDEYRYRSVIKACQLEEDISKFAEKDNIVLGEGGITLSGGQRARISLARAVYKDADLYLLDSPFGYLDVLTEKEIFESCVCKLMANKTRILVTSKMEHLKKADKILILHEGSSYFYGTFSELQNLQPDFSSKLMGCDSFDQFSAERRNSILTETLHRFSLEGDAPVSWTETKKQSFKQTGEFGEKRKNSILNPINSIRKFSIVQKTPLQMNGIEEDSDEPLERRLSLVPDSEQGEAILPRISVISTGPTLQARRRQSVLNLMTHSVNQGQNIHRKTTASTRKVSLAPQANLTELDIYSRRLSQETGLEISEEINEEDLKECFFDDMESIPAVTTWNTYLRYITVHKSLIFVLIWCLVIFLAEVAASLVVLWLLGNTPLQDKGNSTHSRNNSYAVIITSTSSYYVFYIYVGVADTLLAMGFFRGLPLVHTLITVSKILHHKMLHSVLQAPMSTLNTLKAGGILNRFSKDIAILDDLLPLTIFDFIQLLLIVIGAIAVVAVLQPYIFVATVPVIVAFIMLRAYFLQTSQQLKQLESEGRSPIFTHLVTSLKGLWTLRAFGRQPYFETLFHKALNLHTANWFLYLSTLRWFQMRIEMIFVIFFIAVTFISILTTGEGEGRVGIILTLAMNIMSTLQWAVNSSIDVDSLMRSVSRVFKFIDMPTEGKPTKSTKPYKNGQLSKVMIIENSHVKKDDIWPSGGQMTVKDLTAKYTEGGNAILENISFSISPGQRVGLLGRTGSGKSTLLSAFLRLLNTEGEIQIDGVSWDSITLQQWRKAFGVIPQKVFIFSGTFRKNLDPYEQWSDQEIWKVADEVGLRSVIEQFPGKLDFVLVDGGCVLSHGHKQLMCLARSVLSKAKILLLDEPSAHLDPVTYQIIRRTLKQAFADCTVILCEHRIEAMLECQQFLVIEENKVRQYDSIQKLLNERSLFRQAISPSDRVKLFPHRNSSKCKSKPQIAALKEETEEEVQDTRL
- protocol_notes: Cell Surface Expression-Horse Radish Peroxidase (CSE-HRP) Assay
- Format: cell-based
- reported_conditions: with co-corrector (2 μM of 3-[(2R,4R)-4-({[1-(2,2-difluoro-1,3-benzodioxol-5-yl)cyclopropyl]carbonyl}amino)-7-methoxy-3,4-dihydro-2H-chromen-2-yl]benzoic acid); read-out: EC50 (with co-corrector)
- Protocol: Cell Surface Expression-Horse Radish Peroxidase (CSE-HRP) Assay The development was achieved by expressing the F508delCFTR mutation along with a horseradish peroxidase (HRP) in the fourth exofacial loop, and then measuring the HRP activity using luminescence readout from these cells, CFBE4lo-F508delCFTR-HRP, that were incubated overnight with the test corrector compounds, either without or with the co-corrector. […] The raw counts from the experiment were analyzed using Accelrys® Assay Explorer v3.3. […]
pEC50: −log10 of the molar value.
# pEC50 listing for each entry below

Would you please look over these solved cases?
INSERT INTO assay_data (molecule, observed_property, value_observed) VALUES
  ('Cc1cc(C)c(C#N)c(N[C@H]2[C@H](C(C)(C)C)[C@@H](C(=O)O)N(C(=O)C3CCCCC3)[C@H]2c2ccccc2)n1 [III-148]', 'pEC50', '5.00 to 6.00'),
  ('Cc1cc(C(F)(F)F)cc(N[C@@H]2[C@@H](C(C)(C)C)[C@H](C(=O)O)N(C(=O)C3CCCCC3)[C@@H]2c2ccccc2)n1 [Example 3]', 'pEC50', '5.00 to 6.00');

Hello, please tell me recorded pEC50 for this one: CC(C)(C)[C@@H]1[C@@H](Nc2cc(Cl)ccn2)[C@@H](c2ccccc2)N(C(=O)C2CCCCC2)[C@H]1C(=O)O (racemic) [III-6]
5.00 to 6.00

Hello, please tell me recorded pEC50 for this one: COc1ncc(C(F)(F)F)cc1CN[C@@H]1[C@@H](C(C)(C)C)[C@H](C(=O)O)N(C(=O)C2CCCCC2)[C@@H]1c1ccccc1 (racemic) [III-81]
5.00 to 6.00

Hello, please tell me recorded pEC50 for this one: COc1ccc(C(C)(C)C)cc1CN[C@H]1[C@H](C(C)(C)C)[C@@H](C(=O)O)N(C(=O)C2CC2c2cccs2)[C@H]1c1ccccc1 (stereo partly drawn) [III-193]
> 6.00

Hello, please tell me recorded pEC50 for this one: COc1ccc(C(C)(C)C)cc1CN[C@H]1[C@H](C(C)(C)C)[C@@H](C(=O)O)N(C(=O)c2cnn(-c3cccc(C)c3)c2C(C)C)[C@H]1c1ccccc1 [III-194]
> 6.00

====

- experimental_target: F508delCFTR (Homo sapiens, UniProt P13569, DEL508-508)
- Construct: expressed in transfected cells; host or cells: CFBE41o- human lung-derived epithelial cells (CFBE4lo-F508delCFTR-HRP), doxycycline-inducible
- protocol_notes: Cell Surface Expression-Horse Radish Peroxidase (CSE-HRP) Assay
- Assay type: cell-based
- reported_conditions: test compound without co-corrector; read-out: EC50 (without co-corrector)
observed_property: EC50

Hello, please tell me recorded EC50 for this one: COc1c(CN[C@@H]2[C@@H](C(C)(C)C)[C@H](C(=O)O)N(C(=O)C3CCCCC3)[C@@H]2c2ccccc2)c(C)nn1C (racemic) [Example I-4]
> 10 µM

Hello, please tell me recorded EC50 for this one: COc1ncc(C2CCC2)cc1CN[C@H]1[C@H](C(C)(C)C)[C@@H](C(=O)O)N(C(=O)[C@@H]2CCCO2)[C@H]1c1cccnc1C1CC1 [II-588]
1 to 10 µM

Hello, please tell me recorded EC50 for this one: COc1ccc(C23CC(C2)C3)cc1CN[C@H]1[C@H](C(C)(C)OC)[C@@H](C(=O)O)N(C(=O)OC(C)C)[C@H]1c1cccnc1N(C)C [II-501]
1 to 10 µM

====

- experimental_target: F508delCFTR (Homo sapiens, UniProt P13569, DEL508-508)
- Construct: expressed in transfected cells; host or cells: CFBE41o- human lung-derived epithelial cells (CFBE4lo-F508delCFTR-HRP), doxycycline-inducible
- protocol_notes: Cell Surface Expression-Horse Radish Peroxidase (CSE-HRP) Assay
- Assay type: cell-based
- reported_conditions: test compound without co-corrector; read-out: EC50 (without co-corrector)
observed_property: EC50

INSERT INTO measurements (compound, observed_property, value_observed) VALUES
  ('CCCOC(=O)N1[C@H](C(=O)O)[C@@H](C(C)(C)C)[C@H](NCc2cc(C(C)(C)C)ccc2OC)[C@@H]1c1ccccc1', 'EC50', '1000 to 10000 nM'),
  ('COc1ncc(C(F)(F)F)cc1CN[C@H]1[C@H](C(C)(C)C)[C@@H](C(=O)O)N(C(=O)[C@@H]2CCCCO2)[C@H]1c1ccccc1C1CC1', 'EC50', '1000 to 10000 nM'),
  ('COc1nc(C(C)(C)C)ccc1CN[C@H]1[C@H](C(C)(C)C)[C@@H](C(=O)O)N(C(=O)C2CCCCC2)[C@H]1c1ccccc1C(C)C', 'EC50', '< 1000 nM');

Hello, please tell me recorded EC50 for this one: Cc1cc(C(F)(F)F)cc(N[C@H]2[C@@H](c3ccccc3)N(C(=O)C3CCCCC3)[C@@H](C(=O)O)C23CC3)n1 (racemic)
1000 to 10000 nM

Hello, please tell me recorded EC50 for this one: COc1cnc(-c2ccc(C)cc2F)cc1CN[C@H]1[C@H](C(C)(C)C)[C@@H](C(=O)O)N(C(=O)C2CCCCC2)[C@H]1c1ccccc1
< 1000 nM

Hello, please tell me recorded EC50 for this one: COc1cc(C(F)(F)F)ccc1CN[C@@H]1[C@@H](C(C)(C)C)[C@H](C(=O)O)N(C(=O)C(C)c2ccccc2)[C@@H]1c1ccccc1 (single isomer, unassigned)
1000 to 10000 nM

Hello, please tell me recorded EC50 for this one: COc1ccc(C(C)C)cc1CN[C@H]1[C@H](C(C)(C)C)[C@@H](C(=O)O)N(C(=O)C2CCCCC2)[C@H]1c1ccc(F)cc1
1000 to 10000 nM

Hello, please tell me recorded EC50 for this one: COc1ncc(C(F)(F)F)cc1CN[C@@H]1[C@@H](C(C)(C)OC)[C@H](C(=O)O)N(C(=O)C2CCCCC2)[C@@H]1c1ccccc1 (racemic)
1000 to 10000 nM

Hello, please tell me recorded EC50 for this one: COc1ncc(-c2ccccc2)cc1CN[C@H]1[C@H](C(C)(C)C)[C@@H](C(=O)O)N(C(=O)C2CCCCC2)[C@H]1c1ccccc1F
< 1000 nM

Hello, please tell me recorded EC50 for this one: COc1ncc(C2CCC2)cc1CN[C@H]1[C@H](C(C)(C)C)[C@@H](C(=O)O)N(C(=O)C2CCCCC2)[C@H]1c1ccccc1C
< 1000 nM

Hello, please tell me recorded EC50 for this one: Cc1cc(C(F)(F)F)nc(N[C@@H]2[C@@H](C(C)(C)C)[C@H](C(=O)O)N(C(=O)OC(C)C)[C@@H]2c2ccccc2)n1 (racemic)
1000 to 10000 nM

====

- experimental_target: F508delCFTR (Homo sapiens, UniProt P13569, DEL508-508)
- Construct: expressed in transfected cells; host or cells: CFBE41o- human lung-derived epithelial cells (CFBE4lo-F508delCFTR-HRP), doxycycline-inducible
- protocol_notes: Cell Surface Expression-Horse Radish Peroxidase (CSE-HRP) Assay;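 for Maximum % activity (without co-corrector): percent of the 2 µM on-plate positive control corrector response above DMSO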
- Type: cell-based
- reported_conditions: without co-corrector; maximum at any tested concentration, normalized to on-plate positive control; read-out: Maximum % activity (without co-corrector)
# Emax listing for each entry below

Would you please look over these solved cases?
INSERT INTO measurements (molecule, value_observed) VALUES
  ('COc1ccc(C2(C(F)(F)F)CC2)cc1CN[C@H]1[C@H](C(C)(C)C)[C@@H](C(=O)O)N(C(=O)[C@@H]2CCCCO2)[C@H]1c1cccnc1N(C)C', '> 200%'),
  ('COc1ncc(C2CCCC2)cc1CN[C@H]1[C@H](C(C)(C)OC)[C@@H](C(=O)O)N(C(=O)C2CCCCC2)[C@H]1c1ccccc1', '100 to 200%'),
  ('COc1ccc(C(C)(C)C)cc1CN[C@H]1[C@H](C23CC(C2)C3)[C@@H](C(=O)O)N(C(=O)OC(C)C)[C@H]1c1cccnc1N(C)C', '> 200%'),
  ('COc1ccc(C(C)(C)C)cc1CN[C@H]1[C@H](C(C)(C)C)[C@@H](C(=O)O)N(C(=O)[C@@H]2CCCCO2)[C@H]1c1cccnc1OC', '> 200%'),
  ('COc1cc(C(F)(F)F)ccc1CN[C@@H]1[C@@H](C(C)(C)C)[C@H](C(=O)O)N(C(=O)OC(C)C)[C@@H]1c1cccnc1N(C)C (racemic)', '> 200%');

Send back F508delCFTR (Homo sapiens, UniProt P13569, DEL508-508) Emax of COc1ccc(C(C)(C)C)cc1CN[C@H]1[C@H](C(C)(C)C)[C@@H](C(=O)O)N(C(=O)[C@H]2CCC[C@H](OC)C2)[C@H]1c1ccccc1 only.
> 200%
